SYSTEM_TESTED: Neuronal acetylcholine receptor; alpha2/beta2 (Rattus norvegicus, UniProt P12389+P12390)
Sequence (P12389 whole entry, one chain of several): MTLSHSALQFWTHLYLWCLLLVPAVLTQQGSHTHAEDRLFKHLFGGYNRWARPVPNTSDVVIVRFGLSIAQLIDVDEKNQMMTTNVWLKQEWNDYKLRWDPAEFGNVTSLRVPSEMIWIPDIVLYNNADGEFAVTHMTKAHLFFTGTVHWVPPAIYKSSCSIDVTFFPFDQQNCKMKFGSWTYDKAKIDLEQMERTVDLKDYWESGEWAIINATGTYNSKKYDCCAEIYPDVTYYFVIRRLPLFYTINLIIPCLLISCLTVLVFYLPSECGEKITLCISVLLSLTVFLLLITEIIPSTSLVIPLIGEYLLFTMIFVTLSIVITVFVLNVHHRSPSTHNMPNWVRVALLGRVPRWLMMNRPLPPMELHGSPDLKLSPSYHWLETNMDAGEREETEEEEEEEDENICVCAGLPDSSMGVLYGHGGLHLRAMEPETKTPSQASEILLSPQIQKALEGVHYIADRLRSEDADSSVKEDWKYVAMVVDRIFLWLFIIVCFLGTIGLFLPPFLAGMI
EXPERIMENTAL_PROTOCOL: Displacement of [3H]epibatidine from rat alpha2beta2 nAChR by liquid scintillation counting
ASSAY_READOUT: pKi
Entry type: numeric. Quantity: pKi, the -log10 of concentration in molar units.

Input line: What measured pKi goes with COCC[C@@H]1C[C@H]1c1cncc(N2C[C@@H]3C[C@H]2CN3)c1 ?
Output line: 7.37

Input line: What measured pKi goes with COCC[C@H]1C[C@@H]1c1cncc(N2C[C@@H]3C[C@H]2CN3)c1 ?
Output line: 8.51

Input line: What measured pKi goes with COCC[C@H]1C[C@@H]1c1cncc(N2CCCNCC2)c1 ?
Output line: 9.52

Input line: What measured pKi goes with CN1CCCN(c2cncc(-c3cc(CCO)no3)c2)CC1 ?
Output line: 7.33

Input line: What measured pKi goes with COCC[C@@H]1C[C@H]1c1cncc(N2CCCNCC2)c1 ?
Output line: 9.52

Input line: What measured pKi goes with OCCc1cc(-c2cncc(N3CCCNCC3)c2)on1 ?
Output line: 9.10

Input line: What measured pKi goes with c1cncc(N2CCCNCC2)c1 ?
Output line: 8.96

Input line: What measured pKi goes with COCC[C@H]1C[C@@H]1c1cncc(N2CCCN(C)CC2)c1 ?
Output line: 7.74

Input line: What measured pKi goes with c1cncc(N2CC3CC2CN3)c1 (centres undefined) ?
Output line: 9.52

###

SYSTEM_TESTED: alpha3beta4 nAChR (neuronal acetylcholine receptor alpha3/beta4) (Rattus norvegicus, UniProt P04757+P12392)
Sequence (P12392 whole entry, one chain of several): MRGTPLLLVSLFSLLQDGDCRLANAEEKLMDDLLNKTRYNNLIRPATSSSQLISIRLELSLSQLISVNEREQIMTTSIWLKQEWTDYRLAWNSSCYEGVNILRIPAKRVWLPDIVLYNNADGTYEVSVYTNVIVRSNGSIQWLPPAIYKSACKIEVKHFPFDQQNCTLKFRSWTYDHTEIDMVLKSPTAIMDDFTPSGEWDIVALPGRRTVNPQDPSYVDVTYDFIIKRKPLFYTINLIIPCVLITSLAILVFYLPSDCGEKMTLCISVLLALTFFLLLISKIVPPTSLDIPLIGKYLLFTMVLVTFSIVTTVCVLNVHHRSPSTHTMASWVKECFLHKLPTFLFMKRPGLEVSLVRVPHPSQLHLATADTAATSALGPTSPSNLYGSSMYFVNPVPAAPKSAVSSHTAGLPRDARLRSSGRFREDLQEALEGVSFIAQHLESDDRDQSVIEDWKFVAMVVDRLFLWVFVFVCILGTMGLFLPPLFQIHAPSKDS
EXPERIMENTAL_PROTOCOL: Displacement of [3H]epibatidine from rat alpha3beta4 nAChR at 10 uM by liquid scintillation counting
STATED_CONDITIONS: probe [3H]epibatidine
ASSAY_READOUT: inhibition at 10 µM

Input line: What measured inhibition at 10 µM goes with CN1CCCN(c2cncc(-c3cc(CCO)no3)c2)CC1 ?
Output line: < 50%

###

SYSTEM_TESTED: Neuronal acetylcholine receptor; alpha4/beta2 (Rattus norvegicus, UniProt P09483+P12390)
Sequence (P09483 whole entry, one chain of several): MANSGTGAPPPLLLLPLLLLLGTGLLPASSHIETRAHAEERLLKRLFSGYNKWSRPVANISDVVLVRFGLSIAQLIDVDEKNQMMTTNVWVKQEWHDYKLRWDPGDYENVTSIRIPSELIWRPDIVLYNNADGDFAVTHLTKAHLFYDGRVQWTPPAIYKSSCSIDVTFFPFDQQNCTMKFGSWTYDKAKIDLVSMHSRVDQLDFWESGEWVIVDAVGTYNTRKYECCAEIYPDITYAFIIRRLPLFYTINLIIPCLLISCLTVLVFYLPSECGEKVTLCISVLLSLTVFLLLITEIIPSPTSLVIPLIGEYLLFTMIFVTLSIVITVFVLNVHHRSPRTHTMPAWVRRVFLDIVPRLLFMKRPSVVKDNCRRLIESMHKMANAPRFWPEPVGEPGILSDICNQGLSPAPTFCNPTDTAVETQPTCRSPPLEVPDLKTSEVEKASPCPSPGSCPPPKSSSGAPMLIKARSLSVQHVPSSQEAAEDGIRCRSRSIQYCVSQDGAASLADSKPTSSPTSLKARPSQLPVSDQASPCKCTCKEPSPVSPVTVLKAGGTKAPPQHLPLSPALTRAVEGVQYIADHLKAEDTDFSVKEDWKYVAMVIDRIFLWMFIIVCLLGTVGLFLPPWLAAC
EXPERIMENTAL_PROTOCOL: Displacement of [3H]epibatidine from rat alpha4beta2 nAChR by liquid scintillation counting
pKi: −log10 of the molar value.
Everything with pKi lower than 8 is 0; everything else, including exactly 8, is 1.

Input line: // inclusive: pKi at least 8? input: COCC[C@H]1C[C@@H]1c1cncc(N2CCCN(C)CC2)c1
Output line: 0

Input line: // inclusive: pKi at least 8? input: OCCc1cc(-c2cncc(N3CCCNCC3)c2)on1
Output line: 1

Input line: // inclusive: pKi at least 8? input: c1cncc(N2CCCNCC2)c1
Output line: 1

Input line: // inclusive: pKi at least 8? input: COCC[C@@H]1C[C@H]1c1cncc(N2CCCNCC2)c1
Output line: 1

Input line: // inclusive: pKi at least 8? input: c1cncc(N2CC3CC2CN3)c1 (stereo unspecified)
Output line: 1

Input line: // inclusive: pKi at least 8? input: COCC[C@H]1C[C@@H]1c1cncc(N2CCCNCC2)c1
Output line: 1

###

SYSTEM_TESTED: Neuronal acetylcholine receptor; alpha4/beta4 (Rattus norvegicus, UniProt P09483+P12392)
Sequence (P09483 whole entry): as the sequence (P09483 whole entry, one chain of several) above
Sequence (P12392 whole entry): as the sequence (P12392 whole entry, one chain of several) above
EXPERIMENTAL_PROTOCOL: Displacement of [3H]epibatidine from rat alpha4beta4 nAChR by liquid scintillation counting
ASSAY_READOUT: log10 Ki (log10 of the value in nM)
Please be aware that the numbers have been log10-transformed from Ki in nM.

Input line: Return log10 Ki measured with Neuronal acetylcholine receptor; alpha4/beta4 (Rattus norvegicus, UniProt P09483+P12392) given this compound: COCC[C@H]1C[C@@H]1c1cncc(N2CCCN(C)CC2)c1
Output line: 3.68

Input line: Return log10 Ki measured with Neuronal acetylcholine receptor; alpha4/beta4 (Rattus norvegicus, UniProt P09483+P12392) given this compound: OCCc1cc(-c2cncc(N3CCCNCC3)c2)on1
Output line: 1.83

Input line: Return log10 Ki measured with Neuronal acetylcholine receptor; alpha4/beta4 (Rattus norvegicus, UniProt P09483+P12392) given this compound: c1cncc(N2CC3CC2CN3)c1 (centres undefined)
Output line: 0.89

Input line: Return log10 Ki measured with Neuronal acetylcholine receptor; alpha4/beta4 (Rattus norvegicus, UniProt P09483+P12392) given this compound: COCC[C@H]1C[C@@H]1c1cncc(N2C[C@@H]3C[C@H]2CN3)c1
Output line: 3.13

Input line: Return log10 Ki measured with Neuronal acetylcholine receptor; alpha4/beta4 (Rattus norvegicus, UniProt P09483+P12392) given this compound: c1cncc(N2CCCNCC2)c1
Output line: 1.85

Input line: Return log10 Ki measured with Neuronal acetylcholine receptor; alpha4/beta4 (Rattus norvegicus, UniProt P09483+P12392) given this compound: CN1CCCN(c2cncc(-c3cc(CCO)no3)c2)CC1
Output line: 3.69

Input line: Return log10 Ki measured with Neuronal acetylcholine receptor; alpha4/beta4 (Rattus norvegicus, UniProt P09483+P12392) given this compound: COCC[C@@H]1C[C@H]1c1cncc(N2CCCNCC2)c1
Output line: 2.23

Input line: Return log10 Ki measured with Neuronal acetylcholine receptor; alpha4/beta4 (Rattus norvegicus, UniProt P09483+P12392) given this compound: COCC[C@@H]1C[C@H]1c1cncc(N2C[C@@H]3C[C@H]2CN3)c1
Output line: 3.93

Input line: Return log10 Ki measured with Neuronal acetylcholine receptor; alpha4/beta4 (Rattus norvegicus, UniProt P09483+P12392) given this compound: COCC[C@H]1C[C@@H]1c1cncc(N2CCCNCC2)c1
Output line: 2.18

###

Exercise: for every item that follows, state its recorded Ki.
SYSTEM_TESTED: Neuronal acetylcholine receptor; alpha3/beta2 (Rattus norvegicus, UniProt P04757+P12390)
Sequence (P04757 whole entry): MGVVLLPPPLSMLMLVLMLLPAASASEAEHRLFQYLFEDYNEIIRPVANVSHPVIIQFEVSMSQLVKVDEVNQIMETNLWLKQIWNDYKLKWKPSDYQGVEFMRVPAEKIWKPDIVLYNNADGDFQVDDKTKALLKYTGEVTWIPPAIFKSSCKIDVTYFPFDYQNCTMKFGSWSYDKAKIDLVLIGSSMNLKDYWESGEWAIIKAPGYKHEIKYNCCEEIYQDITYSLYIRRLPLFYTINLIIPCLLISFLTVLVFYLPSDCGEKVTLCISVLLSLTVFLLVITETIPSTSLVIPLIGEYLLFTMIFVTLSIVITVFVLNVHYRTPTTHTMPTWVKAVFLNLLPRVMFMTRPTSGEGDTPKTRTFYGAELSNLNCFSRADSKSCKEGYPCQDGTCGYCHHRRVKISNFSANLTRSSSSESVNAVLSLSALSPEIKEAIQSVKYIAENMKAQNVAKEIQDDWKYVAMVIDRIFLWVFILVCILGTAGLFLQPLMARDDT
Sequence (P12390 whole entry): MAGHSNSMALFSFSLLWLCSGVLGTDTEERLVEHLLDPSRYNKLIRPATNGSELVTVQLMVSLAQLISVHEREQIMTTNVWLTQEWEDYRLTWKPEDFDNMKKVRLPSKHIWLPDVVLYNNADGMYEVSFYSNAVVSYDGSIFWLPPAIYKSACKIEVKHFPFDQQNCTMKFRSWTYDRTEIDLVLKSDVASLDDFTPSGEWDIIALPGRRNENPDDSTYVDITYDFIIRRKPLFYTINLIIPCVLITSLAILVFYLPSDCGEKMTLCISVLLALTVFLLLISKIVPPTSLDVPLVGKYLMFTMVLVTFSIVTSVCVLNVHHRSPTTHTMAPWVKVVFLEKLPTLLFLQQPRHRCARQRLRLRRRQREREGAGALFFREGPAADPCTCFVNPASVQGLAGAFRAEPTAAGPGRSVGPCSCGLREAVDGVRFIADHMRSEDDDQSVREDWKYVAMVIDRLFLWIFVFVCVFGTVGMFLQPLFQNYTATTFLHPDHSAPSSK
EXPERIMENTAL_PROTOCOL: Displacement of [3H]epibatidine from rat alpha3beta2 nAChR by liquid scintillation counting
Assay type: protein-complex assay
Express it in nM; write the number only.

Input line: What measured Ki goes with c1cncc(N2CC3CC2CN3)c1 (centres undefined) ?
Output line: 3.1

Input line: What measured Ki goes with OCCc1cc(-c2cncc(N3CCCNCC3)c2)on1 ?
Output line: 42

Input line: What measured Ki goes with COCC[C@H]1C[C@@H]1c1cncc(N2C[C@@H]3C[C@H]2CN3)c1 ?
Output line: 141

Input line: What measured Ki goes with COCC[C@H]1C[C@@H]1c1cncc(N2CCCNCC2)c1 ?
Output line: 17

Input line: What measured Ki goes with COCC[C@@H]1C[C@H]1c1cncc(N2CCCNCC2)c1 ?
Output line: 15.8

Input line: What measured Ki goes with COCC[C@@H]1C[C@H]1c1cncc(N2C[C@@H]3C[C@H]2CN3)c1 ?
Output line: 617

Input line: What measured Ki goes with COCC[C@H]1C[C@@H]1c1cncc(N2CCCN(C)CC2)c1 ?
Output line: 681

Input line: What measured Ki goes with CN1CCCN(c2cncc(-c3cc(CCO)no3)c2)CC1 ?
Output line: 1040

Input line: What measured Ki goes with c1cncc(N2CCCNCC2)c1 ?
Output line: 5.1

###

Exercise: for every item that follows, state its recorded Ki.
EXPERIMENTAL_PROTOCOL: Displacement of [3H]epibatidine from rat forebrain alpha4beta2* nAChR by liquid scintillation counting
Express it in nM; write the number only.

Input line: What measured Ki goes with c1cncc(N2CCCNCC2)c1 ?
Output line: 3.3

Input line: What measured Ki goes with COCC[C@H]1C[C@@H]1c1cncc(N2CCCNCC2)c1 ?
Output line: 2.7

Input line: What measured Ki goes with c1cncc(N2CC3CC2CN3)c1 (stereo not given) ?
Output line: 0.8

Input line: What measured Ki goes with COCC[C@H]1C[C@@H]1c1cncc(N2CCCN(C)CC2)c1 ?
Output line: 33.8

Input line: What measured Ki goes with OCCc1cc(-c2cncc(N3CCCNCC3)c2)on1 ?
Output line: 3.5
